Each entry below lists one item and its recorded shrunken log2 fold change value.
Test system: Escherichia coli TOP10
Experiment: shrunken log2 fold change of peptide-encoding DNA abundance (4.5 h post-induction vs induction); higher = less antimicrobial activity (less host growth inhibition)
Settings: time post-induction: 4.5 h; library: site-saturation at positions 5, 18, 19, 20
Give the figure by itself; no unit, no explanation.

Known results for sequences:
RRIRGRPPRLPRPRPRPSTAPRP ... 0.926
RRIRMRPPRLPRPRPRPECSPRP ... 0.333
RRIRSRPPRLPRPRPRPQEPPRP ... -0.284
RRIRYRPPRLPRPRPRPQDHPRP ... 0.0457
RRIRYRPPRLPRPRPRPRPHPRP ... -0.0677
RRIRHRPPRLPRPRPRPLGGPRP ... -0.0164
RRIRHRPPRLPRPRPRPHVQPRP ... -0.128
RRIRARPPRLPRPRPRPKEEPRP ... -0.0728

Data request, read-out shrunken log2 fold change, for RRIRKRPPRLPRPRPRPPFKPRP
0.498

Follow-up item: RRIRHRPPRLPRPRPRPMIFPRP
-0.251

Follow-up item: RRIRFRPPRLPRPRPRPRFPPRP
0.0497

Follow-up item: RRIRFRPPRLPRPRPRPYHFPRP
-0.194

Follow-up item: RRIRERPPRLPRPRPRPIVKPRP
-0.0406

Follow-up item: RRIRPRPPRLPRPRPRPRIWPRP
0.362

Follow-up item: RRIRFRPPRLPRPRPRPHSPPRP
-0.389

----------
System: Escherichia coli TOP10
Test: shrunken log2 fold change of peptide-encoding DNA abundance (4.5 h post-induction vs induction); higher = less antimicrobial activity (less host growth inhibition)
Conditions: time post-induction: 4.5 h; library: site-saturation at positions 5, 18, 19, 20
Please note: 1 applies when shrunken log2 fold change is 0.06 or greater, and -1 applies otherwise.

RRIRNRPPRLPRPRPRPCRFPRP ... -1
RRIRGRPPRLPRPRPRPIVMPRP ... -1
RRIRFRPPRLPRPRPRPIHIPRP ... -1
RRIRSRPPRLPRPRPRPASKPRP ... -1
RRIRHRPPRLPRPRPRPGNVPRP ... -1
RRIRDRPPRLPRPRPRPVFAPRP ... 1
RRIRLRPPRLPRPRPRPEDIPRP ... -1
RRIRSRPPRLPRPRPRPMFDPRP ... -1

// inclusive: shrunken log2 fold change at least 0.06? input: RRIRARPPRLPRPRPRPKHQPRP
1

Follow-up item: RRIRYRPPRLPRPRPRPQPNPRP
-1

Follow-up item: RRIRLRPPRLPRPRPRPMGTPRP
-1

Follow-up item: RRIRYRPPRLPRPRPRPAFIPRP
-1

Follow-up item: RRIRRRPPRLPRPRPRPFCCPRP
1

Follow-up item: RRIRCRPPRLPRPRPRPKGSPRP
1

Follow-up item: RRIRWRPPRLPRPRPRPGPCPRP
1

Follow-up item: RRIRGRPPRLPRPRPRPHAMPRP
1

Follow-up item: RRIRSRPPRLPRPRPRPTSNPRP
1

Follow-up item: RRIRGRPPRLPRPRPRPEFRPRP
1

Follow-up item: RRIRPRPPRLPRPRPRPWHHPRP
-1

Follow-up item: RRIRLRPPRLPRPRPRPRRHPRP
1

Follow-up item: RRIRARPPRLPRPRPRPCGLPRP
-1

Follow-up item: RRIRDRPPRLPRPRPRPKPRPRP
1

Follow-up item: RRIRTRPPRLPRPRPRPSEWPRP
-1

Follow-up item: RRIRGRPPRLPRPRPRPYLFPRP
-1

Follow-up item: RRIRCRPPRLPRPRPRPGICPRP
-1

Follow-up item: RRIRVRPPRLPRPRPRPVAHPRP
-1

Follow-up item: RRIRFRPPRLPRPRPRPMCWPRP
-1

Follow-up item: RRIRWRPPRLPRPRPRPTHEPRP
1

Follow-up item: RRIRTRPPRLPRPRPRPMFTPRP
-1

----------
Tested on: Escherichia coli TOP10
Assay: shrunken log2 fold change of peptide-encoding DNA abundance (4.5 h post-induction vs induction); higher = less antimicrobial activity (less host growth inhibition)
Conditions: time post-induction: 4.5 h; library: site-saturation at positions 5, 18, 19, 20
Please note: satisfied applies when shrunken log2 fold change is -0.08 or greater, and not satisfied applies otherwise.

Past entries and their recorded results:
RRIRWRPPRLPRPRPRPETVPRP ... satisfied
RRIRSRPPRLPRPRPRPGPPPRP ... satisfied
RRIRVRPPRLPRPRPRPCIHPRP ... satisfied
RRIRWRPPRLPRPRPRPCLEPRP ... satisfied
RRIRLRPPRLPRPRPRPTHLPRP ... not satisfied
RRIRPRPPRLPRPRPRPHSYPRP ... satisfied

// inclusive: shrunken log2 fold change at least -0.08? input: RRIRWRPPRLPRPRPRPWMRPRP
satisfied

Follow-up item: RRIRDRPPRLPRPRPRPSINPRP
not satisfied

----------
System: Escherichia coli TOP10
Experiment: shrunken log2 fold change of peptide-encoding DNA abundance (4.5 h post-induction vs induction); higher = less antimicrobial activity (less host growth inhibition)
Details: time post-induction: 4.5 h; library: site-saturation at positions 5, 18, 19, 20
assay endpoint: shrunken log2 fold change
Give the figure by itself; no unit, no explanation.

Data request, read-out shrunken log2 fold change, for RRIRNRPPRLPRPRPRPFCKPRP
-0.835

Follow-up item: RRIRTRPPRLPRPRPRPHHDPRP
-0.469

Follow-up item: RRIRIRPPRLPRPRPRPWALPRP
-0.0173

Follow-up item: RRIRDRPPRLPRPRPRPWGHPRP
0.0208

Follow-up item: RRIRHRPPRLPRPRPRPWRLPRP
-0.0125

Follow-up item: RRIRHRPPRLPRPRPRPPHFPRP
0.297

Follow-up item: RRIRDRPPRLPRPRPRPVWAPRP
0.548

Follow-up item: RRIRQRPPRLPRPRPRPLKMPRP
-0.269

Follow-up item: RRIRGRPPRLPRPRPRPCNIPRP
-0.284

Follow-up item: RRIRNRPPRLPRPRPRPWCMPRP
-0.312

Follow-up item: RRIRLRPPRLPRPRPRPKHCPRP
-0.207

Follow-up item: RRIRDRPPRLPRPRPRPLEKPRP
0.0929

Follow-up item: RRIRARPPRLPRPRPRPNAPPRP
0.467

Follow-up item: RRIRIRPPRLPRPRPRPWHQPRP
-0.00186

Follow-up item: RRIRRRPPRLPRPRPRPMYAPRP
0.148

----------
Tested on: Escherichia coli TOP10
Test: shrunken log2 fold change of peptide-encoding DNA abundance (4.5 h post-induction vs induction); higher = less antimicrobial activity (less host growth inhibition)
Conditions: time post-induction: 4.5 h; library: site-saturation at positions 5, 18, 19, 20
Please note: label 1 applies when shrunken log2 fold change is 0.006 or greater, and label 0 applies otherwise.

RRIRCRPPRLPRPRPRPSQSPRP ... label 0
RRIRTRPPRLPRPRPRPVCAPRP ... label 1
RRIRQRPPRLPRPRPRPYATPRP ... label 0
RRIRNRPPRLPRPRPRPQIDPRP ... label 0
RRIRPRPPRLPRPRPRPIDDPRP ... label 0
RRIRKRPPRLPRPRPRPVEKPRP ... label 0
RRIRFRPPRLPRPRPRPMSDPRP ... label 0

// inclusive: shrunken log2 fold change at least 0.006? input: RRIRGRPPRLPRPRPRPESKPRP
label 1

----------
System: Escherichia coli TOP10;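 further: peptides expressed intracellularly from a pBAD plasmid library in pooled LB shake-flask culture, induced with 0.3% L-arabinose, DNA abundance read by NGS, three biological replicates, DESeq2 with apeglm shrinkage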
Experiment: shrunken log2 fold change of peptide-encoding DNA abundance (4.5 h post-induction vs induction); higher = less antimicrobial activity (less host growth inhibition)
Details: time post-induction: 4.5 h; library: site-saturation at positions 5, 18, 19, 20
Please note: Satisfied applies when shrunken log2 fold change is 0.005 or greater, and Not satisfied applies otherwise.

RRIRVRPPRLPRPRPRPSWFPRP ... Not satisfied
RRIRARPPRLPRPRPRPDLNPRP ... Satisfied
RRIRIRPPRLPRPRPRPHSDPRP ... Not satisfied
RRIRNRPPRLPRPRPRPSGYPRP ... Not satisfied
RRIRTRPPRLPRPRPRPWSLPRP ... Not satisfied
RRIRCRPPRLPRPRPRPNDNPRP ... Not satisfied
RRIRVRPPRLPRPRPRPPCRPRP ... Satisfied
RRIRPRPPRLPRPRPRPNQSPRP ... Not satisfied

// inclusive: shrunken log2 fold change at least 0.005? input: RRIRSRPPRLPRPRPRPDPWPRP
Satisfied

Follow-up item: RRIRHRPPRLPRPRPRPHHEPRP
Not satisfied

Follow-up item: RRIRRRPPRLPRPRPRPTIFPRP
Satisfied

Follow-up item: RRIRWRPPRLPRPRPRPFWKPRP
Not satisfied

Follow-up item: RRIRWRPPRLPRPRPRPVMNPRP
Not satisfied
